experiment: growth inhibitors of H69AR lung tumor, primary screen, human, duplicate replicates (AID 580); details: H69AR lung tumor cells viability, ATP luminescence, 72 h; at 10 µM; stronger effect = lower value;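 further: 100% = mean luminescence of untreated wells and 0% = no signal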
Below, each entry is listed alongside its reported viability.
Just the number in %, nothing appended.

CCOc1ccccc1-n1c(SCC(=O)NCc2ccco2)nnc1-c1ccncc1: 75.6
COC(=O)c1cc(NS(=O)(=O)c2ccc3c(c2)CCC(=O)N3)cc(C(=O)OC)c1: 96.5

// query viability value for entry CCOc1ccccc1NC(=O)CN(c1ccc(C)cc1)S(=O)(=O)c1c(C)noc1C
81

----------
assay: SK-BR-3 cell growth inhibitors, pilot screen, 24 h, human (AID 572); settings: SK-BR-3 viability, CellTiter-Glo luminescence, at 10 µM, stronger effect = lower value;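 further: compound exposure lasted between 18 and 24 h rather than exactly 24 h; 100% = carrier-treated control wells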
The threshold is 90%. Values of viability beneath it are tagged Condition met; values meeting or exceeding it are tagged Condition not met.

O=C(Cn1c(=O)[nH]n(-c2ccccc2)c1=O)N1CCCc2ccccc21: Condition not met
O=C(NC12CC3CC(CC(C3)C1)C2)c1cncc(O)c1: Condition not met
C=CCN1C(=O)/C(=C2\SC(N3CCOCC3)=NC2=O)c2cc(Br)ccc21: Condition met

# TODO verify viability < 90% strictly for this compound: CCc1[nH]nc2c1C(c1ccncc1)C(C#N)=C(N)O2 (stereo not given)
Condition not met

----------
assay: growth suppression of yeast trafficking mutant, preliminary HTS, modulators of trafficking downstream of Golgi apparatus project, 1536-format plate, OD 615 nm (AID 637); conditions: yeast transport mutant growth, absorbance 615 nm, 18 h; stronger effect = higher value
measurement kind: inhibition (%)
All answers are understood in %, so give the number only.

CCn1nc(NC(=O)c2cccnc2)c2cc3ccccc3nc21: -3.17
COc1ccc(NC(=O)CSC2=C(C#N)C(c3ccco3)C3=C(CCCC3=O)N2)c(OC)c1 (stereo not given): 0.65
Cc1cc(C)n(-c2ccc(C(=O)Oc3ccc4c(c3)OCO4)cc2)n1: -1.11
Cn1c(SCC(=O)N2CCN(c3cccc(Cl)c3)CC2)nnc1-c1ccncc1: -1.33

Give the measured inhibition of O=S(=O)(NCCc1ccccn1)c1cccs1 .
4.1

----------
test: growth suppression of yeast trafficking mutant, preliminary HTS, modulators of trafficking downstream of Golgi apparatus project, 1536-format plate, OD 615 nm (AID 637); details: yeast transport mutant growth, absorbance 615 nm, 18 h; stronger effect = higher value
Active and inactive are the calls of the source. No stated cut-off is given here; in the data, active means inhibition above about 30%; inactive means the rest.
# Lookup of reported inhibition keyed by entry

O=C(CCN1C(=O)c2ccccc2C1=O)OCN1C(=O)c2ccccc2C1=O: -3.17% (inactive)

Recorded inhibition for COc1ccc(C2C3=C(CC(C)(C)CC3=O)Oc3ncn4nc(-c5cccnc5)nc4c32)cc1 (stereo unspecified) , please?
0% (inactive)

Given COc1ccc(C(=O)Cn2c(N3CCCCC3)nc3c2c(=O)n(C)c(=O)n3C)cc1OC , state its recorded inhibition.
-1.48% (inactive)

Consider the compound CCCN(CCC)C(=O)C1CCN(c2cc(C)nc3c(-c4ccc(OC)c(OC)c4)c(C)nn23)CC1 and give its measured inhibition.
-5.08% (inactive)

Query: inhibition; subject: CC(=O)c1cccc(S(=O)(=O)NCC(c2ccco2)N2CCCCC2)c1 (stereo unspecified)
-7.3% (inactive)

Which inhibition is reported for this compound? Cc1cc(NC(=O)CCC(=O)N(CC(=O)NC2CCCC2)Cc2ccc(F)cc2)no1
-5.08% (inactive)

Dear colleague, I am looking for the recorded inhibition of the following compound: O=C(CSc1nnc(-c2ccco2)c(-c2ccco2)n1)Nc1ccccc1
9.03% (inactive)

Looking for the measured inhibition of COc1ccc(NC(=O)Cn2nnc(-c3ccccc3N)n2)cc1OC , can you help?
10% (inactive)

I have this compound here, Cc1cc2c(cc(C(=O)NCc3cccnc3)n2Cc2ccc(Cl)cc2)o1 , and I need its recorded inhibition.
-3.33% (inactive)

inhibition lookup needed for CCOC(=O)Nc1c(C(=O)OC)[nH]c2cccc(OC)c12 , thanks.
9.52% (inactive)

// returns reported inhibition for input O=C(Oc1ccc2c(c1)CCC2)N1CCOCC1
-5% (inactive)

Return reported inhibition; argument: CCOC(=O)Cn1c2c(c(=N)c3ccccc31)CCC2
-1.15% (inactive)

Tell me the measured inhibition of COc1ccc2[nH]c(=O)c(CN(C(=O)c3cccnc3)c3ccccc3OC)cc2c1 , please.
-0.16% (inactive)

What value of inhibition has been reported for the following compound? Cc1c(C(=O)O)oc2ccc(S(=O)(=O)NCc3ccccc3)cc12
-6.51% (inactive)

inhibition for CCN(CC)Cc1nc2c(c(=O)[nH]1)C1(CCCCC1)Cc1ccccc1-2 ?
0.16% (inactive)

inhibition lookup needed for Cc1ccc2[nH]c3c(N4CCOCC4)ncnc3c2c1 , thanks.
8.2% (inactive)

----------
assay: reversal of MRP1-mediated doxorubicin resistance, pilot screen, H69AR cells, doxorubicin co-treatment (AID 601); details: H69AR cells + 2 uM doxorubicin, CellTiter-Glo, 72 h; measured here: viability with 2 uM doxorubicin; at 10 µM; stronger effect = lower value
measurement kind: viability (%)
Field: numeric (%). Do not append units.

O=C(CC1CCS(=O)(=O)C1)Nc1ccc[nH]c1=O (stereo unspecified): 92.3
CN1CC[n+]2cnc3ccccc3c21: 89.1
C=C(C)CSc1nnc(-c2cccc(S(=O)(=O)N(C)C)c2)n1-c1cc(OC)ccc1OC: 90.9
CCN(CC)CCCn1c(=S)[nH]c2cc(Cl)ccc2c1=O: 90.4
Cc1cc(O)c(C2(C(F)(F)F)NCCNC2=O)cc1C (stereo unspecified): 91.7

Field: next compound
Query: viability; subject: CCn1c(=O)cc(SCC(=O)Nc2cccnc2)c2ccccc21
89.3

----------
test: reversal of MRP1-mediated doxorubicin resistance, pilot screen, H69AR cells, doxorubicin co-treatment (AID 601); settings: H69AR cells, CellTiter-Glo, 72 h; compound alone cytotoxicity; at 10 µM
measurement kind: viability (%)
Reply with just the number (in %).

Examples from the recorded data:
CCOC(=O)CNC(=O)Nc1ccccc1C(=O)OC: 94.1
c1ccn2c(SCc3cn4ccsc4n3)nnc2c1: 110
O=C(O)CCCC(=O)Nc1nc(-c2ccc(F)cc2)cs1: 96.5
CCCN1C(=O)SC(CC(=O)Nc2ccc(Br)cc2)C1=O (centres undefined): 95.8
CCOC(=O)c1[nH]c2ccc(C)cc2c1N=C(C)N(C)C: 97.7

Requested read-out: viability. Entry: CC(C)(C)OC(=O)N1CCCC1C(=O)N1CCc2ccccc21 (centres undefined)
84.9

What measured viability goes with COc1ccccc1Nc1nc2ccccc2[nH]1 ?
72.8

What value of measured viability is listed for CC1(C)Cc2c(c(-c3ccccc3)nc(N3CCCC3)c2C(N)=O)CO1 ?
87

# viability lookup, item Cc1cc(=O)oc2ccc(OCC(=O)N3CCC(C)CC3)cc12
96.3

Which viability is listed for COC(=O)c1ccccc1NC(=O)c1ccc(COc2ccccc2)o1 ?
98.3

----------
assay: growth suppression of yeast trafficking mutant, preliminary HTS, modulators of trafficking downstream of Golgi apparatus project, 1536-format plate, OD 615 nm (AID 637); conditions: yeast transport mutant growth, absorbance 615 nm, 18 h; stronger effect = higher value
measurement kind: inhibition (%)
Use % as the unit, but write only the number.

Below, each entry is followed by its recorded inhibition result.
COC(=O)Cn1cnc2c(nnn2-c2ccc(C)cc2)c1=O: -2.17
CCOC(=O)CSc1nc2ccccc2c(=O)n1CCN1CCOCC1: -6.19
Cc1ccc(OC(=O)CCc2c(C)nc3ncnn3c2C)cc1: -9.09
N#CCCN(C(=O)Nc1ccc(Cl)cc1)c1ccccc1: 0
COc1cc(C(=O)Nc2cc(Cl)ccc2C)c(-n2cnnn2)cc1OC: 2.95
Cc1ccc2[nH]c(=O)c(CN(CCCN3CCOCC3)C(=O)Nc3cccc(Cl)c3)cc2c1: 2.13

Give its inhibition value. Item: CCS(=O)(=O)N1CCCC(c2nc(-c3cccc(OC)c3)no2)C1 (centres undefined)
-2.7

Find the recorded inhibition belonging to CCOC(=O)N1CCN(S(=O)(=O)c2ccc(OCC)c(C)c2)CC1 and report it.
-3.17

Find the recorded inhibition belonging to COc1cc(C)nc(OCCNC(=O)COc2ccc(Cl)cc2C)n1 and report it.
1.64

----------
Quick list: viability per entry.
experiment: SK-BR-3 cell growth inhibitors, pilot screen, 24 h, human (AID 572); conditions: SK-BR-3 viability, CellTiter-Glo luminescence, at 10 µM, stronger effect = lower value;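 further: compound exposure lasted between 18 and 24 h rather than exactly 24 h; 100% = carrier-treated control wells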
Kindly provide the numeric value in % only, without the unit symbol.

These solved cases illustrate the format of a correct answer.
COc1cccc(C(=O)OCn2nnc3ccccc3c2=O)c1: 88
NC(=O)CSc1nnc(-c2cc3ccccc3o2)n1Cc1ccccc1: 92.5
N#Cc1c(-c2ccccc2)nc(SCc2nc(N)nc(N3CCCCC3)n2)[nH]c1=O: 90.5
COc1ccc(C2(CN(C(C)=O)C(C)=O)CCCC2)cc1OC: 89.5

Next:
Need viability of Cc1ccc(S(=O)(=O)C2(C(=O)Nc3cccnc3)CC2)cc1 , thanks.
92.5

Taken from PubChem BioAssay.
